This section presents molecules with their documented melting point values.
readout_label: melting point

molecule	readout_label	observed_measurement
CC(C)[C@@H]1CC[C@@H](C)C[C@H]1C(=O)Nc1ccc(CC#N)cc1	melting point	146 to 150 °C
CCCCCC(C)C(C)c1cc(O)c2c(c1)OC(C)(C)c1ccncc1-2 (stereo not given)	melting point	155 to 157 °C
CCOC(=O)CCNc1nc2c(C)cc(C)cc2n1Cc1nc(C)ccc1O	melting point	180 °C
COc1cc2sc(C(=N)NO)cc2c(F)c1OC	melting point	186 to 190 °C
Cc1c(CNCC2CCOCC2)n(C)c2c(F)c(NC(=O)c3ccc(OC[C@@H]4CCCO4)cc3)ccc12	melting point	132 to 134 °C
COc1ccc(/C=N/Nc2nc(=O)[nH]cc2F)cc1	melting point	202 to 208 °C
CC(C)(C)OC(=O)N[C@@H](CC1CCCCC1)[C@@H](O)CCO	melting point	77 to 79 °C
O=S(=O)(c1ccccc1)n1c2ccc(Br)cc2c2c(Cl)ccnc21	melting point	212 to 214 °C
COC(=O)c1cccc2nc(SCCCCCC(=O)Nc3c(SC)cc(C)nc3SC)oc12	melting point	141 to 142 °C
Cc1noc(-c2cc3c4ccccc4n(CCCCl)c3cn2)n1	melting point	180 to 185 °C
